Where do the numbers come from? From PubChem BioAssay (NCI).

test system: SN12C renal; experiment: NCI tumour cell line growth inhibition, 48 h
property label: TGI

Record excerpt, results attached:
compound: CN(CCN1CCCC1)C1CCc2cc(Cl)c(Cl)cc2C1 (stereo unspecified)
TGI: 30.9 µM
--
compound: COC(=O)/C=C(\C)CC/C=C(\C)CCC1OC1(C)C (stereo unspecified)
TGI: 20.8 µM

Please state TGI for every compound in the list that follows.
1. COc1ccc(C2Oc3ccc(Cl)cc3C=C2[N+](=O)[O-])cc1 (stereo unspecified)
2. O=c1cc(O)cc2n1CCC2
3. CC1=CC2C3(C)C(C)(C(C)=CP3(=O)c3c(C(C)C)cc(C(C)C)cc3C(C)C)C1P2(=O)c1c(C(C)C)cc(C(C)C)cc1C(C)C (stereo unspecified)
4. O=C1NC(=N[C@@H](CO)c2ccccc2)S/C1=C\c1ccc2ncccc2c1
5. O=C(CC(NC(=O)C(F)(F)F)C(=O)O)OCc1ccccc1 (stereo unspecified)

OUTPUT:
1: > 100 µM; 2: > 100 µM; 3: 7.9 µM; 4: > 25 µM; 5: > 100 µM

Please state TGI for every compound in the list that follows.
1. Nc1ncnc2c1nnn2C1C=CC(CP(=O)(O)O)C1 (stereo unspecified)
2. CC(Br)C(=O)NC(CO)C(=O)O (stereo unspecified)
3. COc1cccc(C2c3cc4c(cc3OC(O)C2C)OCO4)c1OC (stereo unspecified)
4. O=C1c2cccc(Oc3ccccc3)c2C(=O)c2cccc(Oc3ccccc3)c21

OUTPUT:
["> 100 µM", "> 100 µM", "64 µM", "> 100 µM"]

* * *

test system: SF-268 CNS; test: NCI tumour cell line growth inhibition, 48 h
property label: TGI (µM)
Answers are plain numbers, in µM.

molecule: CCN1C(=S)N(CC)C2C1NC(=S)N2/N=C/C=C/c1ccccc1OC (stereo not given)
readout units: µM
TGI: 44.8

Please state TGI for every molecule in the list that follows.
1. COc1ccc(C)cc1N1C(=O)C2ON(Cc3ccc(CC(N)=O)cc3)C(c3c4ccccc4c(Cl)c4ccccc34)C2C1=O (stereo not given)
2. COc1cc2ccc3c4cc(OC)c(OC)cc4c[n+](C)c3c2cc1O

OUTPUT:
1: 82.3; 2: 7.23

* * *

Assignment: determine reported TGI for the given compounds.
system: SF-539 CNS; assay: NCI tumour cell line growth inhibition, 48 h

Record excerpt, results attached:
compound: CC1=N/C(=C\c2ccc(/C=C3/N=C(C)OC3=O)cc2)C(=O)O1
target entity: SF-539 CNS
property label: TGI
experimental result: > 100 µM
//
compound: O=[N+]([O-])c1ccccc1C1SCc2nc3ccccc3n21 (stereo not drawn)
target entity: SF-539 CNS
property label: TGI
experimental result: > 100 µM

Please state TGI for every compound in the list that follows.
1. CCn1c2c(c3ccccc3c1=O)C(=O)c1ccccc1-2
2. OCc1ccc2c(c1)CC1(C2)Cc2cc3c(cc2C1O)CCC3 (stereo not drawn)

OUTPUT:
1. 39.7 µM
2. 14.9 µM

Please state TGI for every compound in the list that follows.
1. CN[C@@H](C)C(=O)N[C@H]1CN(S(=O)(=O)c2cccc(S(=O)(=O)N3CC[C@H]4CC[C@@H](C(=O)NC(c5ccccc5)c5ccccc5)N4C(=O)[C@@H](NC(=O)[C@H](C)NC)C3)c2)CC[C@H]2CC[C@@H](C(=O)NC(c3ccccc3)c3ccccc3)N2C1=O
2. O=C1C=CC2(O[C@H](c3ccccc3)[C@@H](c3ccccc3)O2)[C@H](Sc2ccccc2O)C1
3. NNC(=O)C(=O)N/N=C1/CCCC1C(=O)CCC(=O)Nc1ccc(Cl)cc1 (stereo not drawn)
4. c1ccc(-c2c(-c3ccccc3)[n+](Cc3ccc4ccccc4c3)c(-c3ccc(-c4nc5ccccc5s4)cc3)n2Cc2ccc3ccccc3c2)cc1
5. COc1ccc(CNc2cnc3ccc(N)cc3n2)cc1
6. CCCCI(O)OS(=O)(=O)c1ccc(C)cc1
7. O=C1c2cccc(Oc3ccccc3)c2C(=O)c2cccc(Oc3ccccc3)c21
8. O=c1c(F)cn2c(=O)n1CCCCCCCn1c(=O)c(F)cn(c1=O)CCCCCCC2

OUTPUT:
["0.509 µM", "1.7 µM", "> 100 µM", "1.24 µM", "> 100 µM", "> 100 µM", "> 100 µM", "> 100 µM"]

Please state TGI for every compound in the list that follows.
1. Nc1ncnc2c1N=C(c1ccc3c(c1)OCO3)CC(c1ccc(Cl)cc1)N2 (stereo not drawn)
2. CCN(CC)Cc1cc(Nc2nc(NC3CCC(N(C)C)CC3)c3ccccc3n2)ccc1OC (stereo not drawn)
3. CC1=NN(C(=O)Cc2ccccc2)C(=O)/C1=C\c1ccc(O)cc1
4. O=C(/C=C/C12c3ccccc3C(c3ccccc31)C1C(=O)NC(=O)C12)c1ccccn1 (stereo not drawn)
5. COc1ccc2nc(NC(=O)/C(C#N)=C/c3ccccc3)sc2c1

OUTPUT:
["> 100 µM", "13.3 µM", "> 100 µM", "4.65 µM", "> 100 µM"]

Sample Nc1ncnc2c1nnn2C1C=CC(CP(=O)(O)O)C1 (stereo not drawn) ; TGI observed: > 100 µM
